These measurements were taken from patent US12103920B2.

# system_name: AR protein in VCaP cells (Homo sapiens)
# Construct: endogenous in cells; host or cells: VCaP cells
# Sequence (P10275 whole entry): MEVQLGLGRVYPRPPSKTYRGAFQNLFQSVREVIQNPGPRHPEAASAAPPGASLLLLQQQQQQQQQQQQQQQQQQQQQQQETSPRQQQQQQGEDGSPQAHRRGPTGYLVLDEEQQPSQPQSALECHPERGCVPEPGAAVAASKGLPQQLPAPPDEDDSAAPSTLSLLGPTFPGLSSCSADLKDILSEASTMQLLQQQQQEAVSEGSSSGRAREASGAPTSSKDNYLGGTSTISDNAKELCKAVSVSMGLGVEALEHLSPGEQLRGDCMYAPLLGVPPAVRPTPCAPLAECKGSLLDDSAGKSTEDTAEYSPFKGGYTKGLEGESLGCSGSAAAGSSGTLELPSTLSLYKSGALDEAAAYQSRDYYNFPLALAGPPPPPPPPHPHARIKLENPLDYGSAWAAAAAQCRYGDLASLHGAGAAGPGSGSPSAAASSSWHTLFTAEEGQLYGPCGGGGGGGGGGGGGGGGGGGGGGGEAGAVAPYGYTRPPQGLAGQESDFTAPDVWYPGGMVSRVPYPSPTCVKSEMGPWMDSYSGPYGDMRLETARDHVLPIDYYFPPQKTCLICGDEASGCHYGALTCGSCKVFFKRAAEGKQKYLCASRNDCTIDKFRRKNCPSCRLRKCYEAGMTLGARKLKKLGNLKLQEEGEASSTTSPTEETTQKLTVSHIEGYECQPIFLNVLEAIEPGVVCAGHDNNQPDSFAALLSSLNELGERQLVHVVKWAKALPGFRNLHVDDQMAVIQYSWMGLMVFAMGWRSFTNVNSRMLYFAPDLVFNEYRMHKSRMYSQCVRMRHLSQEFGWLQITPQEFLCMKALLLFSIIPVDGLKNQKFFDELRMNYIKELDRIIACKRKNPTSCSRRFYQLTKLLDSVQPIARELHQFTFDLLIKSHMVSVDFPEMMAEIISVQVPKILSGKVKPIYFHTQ
# assay_method_text: VCAP AR Degradation Assay
# Assay type: cell-based
# condition_details: 24 h, AR ELISA, concentration at 50% of DMSO control (50% AR degradation)
Counter-ions that a name gives are not always drawn.
measurement_label: DC50

Use the examples below as a reference point.
molecule	DC50
C[C@@H]1C[C@H](OCCO[C@H]2CC[C@H](N3C(=S)N(c4cnc(C#N)c(C(F)(F)F)c4)C(=O)C3(C)C)CC2)C[C@H](C)N1CC(=O)Nc1cccc(NC2CCC(=O)NC2=O)c1 (stereo partly shown)	≤ 5 nM
CC1(C)C(=O)N(c2cnc(C#N)c(C(F)(F)F)c2)C(=S)N1[C@H]1CC[C@H](OCCN2CCN(CC(=O)Nc3cc(Cl)cc(NC4CCC(=O)NC4=O)c3)[C@@H](C(F)(F)F)C2)CC1 (stereo partly shown)	5 to 10 nM
C[C@@H]1CN(CCC[C@H]2CC[C@H](N3C(=S)N(c4ccc(C#N)c(C(F)(F)F)c4)C(=O)C3(C)C)CC2)C[C@H](C)N1CC(=O)Nc1cc(F)cc(NC2CCC(=O)NC2=O)c1 (stereo partly shown)	5 to 10 nM

Exercise: Which DC50 reading was recorded for the molecule C[C@@H]1C[C@H](OCCO[C@H]2CC[C@H](N3C(=S)N(c4ccc(C#N)c(C(F)(F)F)c4)C(=O)C3(C)C)CC2)C[C@H](C)N1CC(=O)Nc1cccc(NC2CCC(=O)NC2=O)c1 (stereo partly shown) ?
Key: 5 to 10 nM

Exercise: # input molecule: C[C@@H]1C[C@H](OCCC[C@H]2CC[C@H](N3C(=S)N(c4ccc(C#N)c(C(F)(F)F)c4)C(=O)C3(C)C)CC2)C[C@H](C)N1CC(=O)Nc1cccc(NC2CCC(=O)NC2=O)c1 (stereo partly shown) ; wanted: its DC50
Key: 10 to 100 nM

Exercise: Any idea what DC50 was measured for CC1(C)C(=O)N(c2cnc(C#N)c(C(F)(F)F)c2)C(=S)N1[C@H]1CC[C@H](OCCCN2CCN(CC(=O)Nc3cccc(NC4CCC(=O)NC4=O)c3)[C@@H](C(F)(F)F)C2)CC1 (stereo partly shown) ?
Key: ≤ 5 nM

Exercise: # query: DC50 of entry C[C@@H]1CN(CCCO[C@H]2CC[C@H](N3C(=S)N(c4ccc(C#N)c(Cl)c4)C(=O)C3(C)C)CC2)C[C@H](C)N1CC(=O)Nc1cccc(NC2CCC(=O)NC2=O)c1 (stereo partly shown) [Cmpd 9, hydrochloride]
Key: ≤ 5 nM

Exercise: For CC1(C)C(=O)N(c2cnc(C#N)c(C(F)(F)F)c2)C(=S)N1[C@H]1CC[C@H](OCCN2CCN(CC(=O)Nc3cc(F)cc(NC4CCC(=O)NC4=O)c3)[C@@H](C(F)(F)F)C2)CC1 (stereo partly shown) , what is its reported DC50?
Key: ≤ 5 nM

Exercise: Which DC50 value is on record for CC1(C)C(=O)N(c2ccc(C#N)c(C(F)(F)F)c2)C(=S)N1[C@H]1CC[C@H](OCCC2CCN(CC(=O)Nc3cccc(NC4CCC(=O)NC4=O)c3)CC2(F)F)CC1 (stereo partly shown) ?
Key: 5 to 10 nM

Exercise: Which DC50 value belongs to C[C@@H]1C[C@@H](CCO[C@H]2CC[C@H](N3C(=S)N(c4cnc(C#N)c(C(F)(F)F)c4)C(=O)C3(C)C)CC2)C[C@H](C)N1CC(=O)Nc1cccc(NC2CCC(=O)NC2=O)c1 (stereo partly shown) ?
Key: ≤ 5 nM
